Source of measurements: patent US8871777B2

Parameter log10 IC50: see the listing below.
Molecular target: human blood platelet PDE5 (Homo sapiens, UniProt O76074)
Construct: obtained by suitably treating various tissues and separating the enzyme with FPLC; from tissue; host or cells: human blood platelets
Test: PDE5 enzyme inhibition activity test (scintillation proximity)
Format: biochemical
Details: PDE5 table
property: log10 IC50 (log10 of the value in nM)

>>> df
                                    compound  numeric_result
 0  CCCOc1ccc(C(=O)N2CCOCC2)cc1-c1nc(C(C)C)c(Br)c(=O)[nH]1 [Example 63]            0.09
 1  CCCOc1ccc(C(=O)NC(CCCN)C(=O)O)cc1-c1nc(CC)c(CC)c(=O)[nH]1 (stereo not drawn) [Example 210]            0.79
 2  CCCOc1ccc(C(=O)NC(C)CO)cc1-c1nc(CC)c(CC)c(=O)[nH]1 (stereo not drawn) [Example 166]           -0.48
 3  CCCOc1ccc(C(=O)NC2CCC(C(=O)OC)NC2)cc1-c1nc(CC)c(CC)c(=O)[nH]1 (stereo not drawn) [Example 174]           -0.35
 4  CCCOc1ccc(C(=O)NC(C)C(N)=O)cc1-c1nc(CC)c(CC)c(=O)[nH]1 (stereo not drawn) [Example 155]           -0.27
 5  CCCOc1ccc(C(=O)N2CCN(CCO)CC2)cc1-c1nc(CC)c(CC)c(=O)[nH]1 [Example 164]           -0.34
 6  CCCOc1ccc(C(=O)N2CCCCC2)cc1-c1nc(CC)c(CC)c(=O)[nH]1 [Example 60]            0.31
 7  CCCOc1ccc(S(=O)(=O)NC(CCCN)C(=O)O)cc1-c1nc(CC)c(CC)c(=O)[nH]1 (stereo not drawn) [Example 119]            0.80
 8  CCCOc1ccc(NC(=O)C(Cc2ccccc2)NC(C)=O)cc1-c1nc(CC)c(CC)c(=O)[nH]1 (stereo not drawn) [Example 110]            0.45
 9  CCCOc1ccc(-c2nc(CC)c(CC)c(=O)[nH]2)cc1-c1nc(CC)c(CC)c(=O)[nH]1 [Example 87]            0.52
10  CCCOc1ccc(NS(C)(=O)=O)cc1-c1nc(CC)c(CC)c(=O)[nH]1 [Example 51]            0.09
11  CCCOc1ccc(NC(=O)C2CC(O)CN2C(=O)OC(C)(C)C)cc1-c1nc(CC)c(CC)c(=O)[nH]1 (stereo not drawn) [Example 57]            0.08
12  CCCOc1ccc(NC(=O)C2CCCN2C(C)=O)cc1-c1nc(CC)c(CC)c(=O)[nH]1 (stereo not drawn) [Example 108]           -0.27
13  CCCOc1ccc(C(=O)NCC(=O)OCC)cc1-c1nc(CC)c(CC)c(=O)[nH]1 [Example 89]            0.30
14  CCCOc1ccc(S(=O)(=O)NC(C)C(=O)OCC)cc1-c1nc(CC)c(CC)c(=O)[nH]1 (stereo not drawn) [Example 123]           -0.31

###

Each record here notes measured IC50.
Biological target: human blood platelet PDE5 (Homo sapiens, UniProt O76074)
Construct: obtained by suitably treating various tissues and separating the enzyme with FPLC; from tissue; host or cells: human blood platelets
Assay: PDE5 enzyme inhibition activity test (scintillation proximity)
Assay type: biochemical
Settings: PDE5 table
property: IC50 (nM)

                                   molecule                             tested_target  property  numeric_result
0  CCCOc1ccc(C(=O)N2CCN(CCOCCO)CC2)cc1-c1nc(CC)c(CC)c(=O)[nH]1  human blood platelet PDE5 (Homo sapiens, UniProt O76074)      IC50            7.92
1  CCCOc1ccc(C2OC(CO)C(O)C(O)C2O)cc1-c1nc(CC)c(CC)c(=O)[nH]1 (stereo not shown)  human blood platelet PDE5 (Homo sapiens, UniProt O76074)      IC50            8.63
2  CCCOc1ccc(S(=O)(=O)NC(CC(N)=O)C(=O)O)cc1-c1nc(CC)c(CC)c(=O)[nH]1 (stereo not shown)  human blood platelet PDE5 (Homo sapiens, UniProt O76074)      IC50            1.79
3  CCCOc1ccc(C(=O)N2CCCC2C(N)=O)cc1-c1nc(CC)c(CC)c(=O)[nH]1 (stereo not shown)  human blood platelet PDE5 (Homo sapiens, UniProt O76074)      IC50            1.93

###

Molecular target: PDE6 in bovine retina (Bos taurus, UniProt P11541+P23439)
Construct: obtained by suitably treating various tissues and separating the enzyme with FPLC; from tissue; host or cells: bovine retina
Experiment: PDE6 enzyme inhibition activity test (scintillation proximity)
Assay type: biochemical
Details: PDE6 separated from bovine retina; read-out: PDE6 IC50
// reported IC50 for each item listed
property: IC50

>>> df
                                   compound  property   result
0  CCCOc1ccc(S(=O)(=O)NC(C)C(=O)OCC)cc1-c1nc(CC)c(CC)c(=O)[nH]1 (stereo not shown) [Example 123]      IC50  13.3 nM
1  CCCOc1ccc(C(=O)N2CCCC2C(=O)OC)cc1-c1nc(CC)c(CC)c(=O)[nH]1 (stereo not shown) [Example 139]      IC50  7.82 nM
2  CCCOc1ccc(NC(=O)C(F)(F)F)cc1-c1nc(CC)c(CC)c(=O)[nH]1 [Example 98]      IC50  10.4 nM
3  CCCOc1ccc(NS(C)(=O)=O)cc1-c1nc(C(C)C)c(Br)c(=O)[nH]1 [Example 50]      IC50   114 nM

###

Target: PDE6 in bovine retina (Bos taurus, UniProt P11541+P23439)
Construct: obtained by suitably treating various tissues and separating the enzyme with FPLC; from tissue; host or cells: bovine retina
Sequence (P11541 2-856 limits assumed): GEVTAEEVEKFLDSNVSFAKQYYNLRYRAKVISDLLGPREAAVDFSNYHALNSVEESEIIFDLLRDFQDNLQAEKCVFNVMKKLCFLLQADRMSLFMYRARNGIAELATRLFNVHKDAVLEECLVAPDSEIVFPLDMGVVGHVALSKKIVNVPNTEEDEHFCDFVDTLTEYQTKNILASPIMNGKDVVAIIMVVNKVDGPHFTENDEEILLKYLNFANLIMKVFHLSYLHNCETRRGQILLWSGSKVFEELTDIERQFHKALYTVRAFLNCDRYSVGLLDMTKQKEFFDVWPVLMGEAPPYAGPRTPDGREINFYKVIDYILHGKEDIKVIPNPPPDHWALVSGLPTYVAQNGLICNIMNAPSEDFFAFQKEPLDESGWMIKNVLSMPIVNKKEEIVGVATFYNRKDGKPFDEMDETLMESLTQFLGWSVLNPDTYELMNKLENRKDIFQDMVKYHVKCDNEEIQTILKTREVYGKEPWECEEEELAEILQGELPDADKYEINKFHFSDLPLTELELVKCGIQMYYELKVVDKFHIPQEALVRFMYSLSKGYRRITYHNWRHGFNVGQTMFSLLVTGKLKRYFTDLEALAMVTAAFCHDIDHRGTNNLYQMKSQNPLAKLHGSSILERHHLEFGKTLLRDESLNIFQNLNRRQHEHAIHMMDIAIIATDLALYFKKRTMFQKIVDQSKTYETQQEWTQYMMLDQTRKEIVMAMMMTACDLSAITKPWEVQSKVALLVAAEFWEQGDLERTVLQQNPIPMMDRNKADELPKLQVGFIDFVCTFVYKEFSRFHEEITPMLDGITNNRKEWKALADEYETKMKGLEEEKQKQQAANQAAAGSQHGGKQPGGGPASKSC
Sequence (P23439 2-850 limits assumed): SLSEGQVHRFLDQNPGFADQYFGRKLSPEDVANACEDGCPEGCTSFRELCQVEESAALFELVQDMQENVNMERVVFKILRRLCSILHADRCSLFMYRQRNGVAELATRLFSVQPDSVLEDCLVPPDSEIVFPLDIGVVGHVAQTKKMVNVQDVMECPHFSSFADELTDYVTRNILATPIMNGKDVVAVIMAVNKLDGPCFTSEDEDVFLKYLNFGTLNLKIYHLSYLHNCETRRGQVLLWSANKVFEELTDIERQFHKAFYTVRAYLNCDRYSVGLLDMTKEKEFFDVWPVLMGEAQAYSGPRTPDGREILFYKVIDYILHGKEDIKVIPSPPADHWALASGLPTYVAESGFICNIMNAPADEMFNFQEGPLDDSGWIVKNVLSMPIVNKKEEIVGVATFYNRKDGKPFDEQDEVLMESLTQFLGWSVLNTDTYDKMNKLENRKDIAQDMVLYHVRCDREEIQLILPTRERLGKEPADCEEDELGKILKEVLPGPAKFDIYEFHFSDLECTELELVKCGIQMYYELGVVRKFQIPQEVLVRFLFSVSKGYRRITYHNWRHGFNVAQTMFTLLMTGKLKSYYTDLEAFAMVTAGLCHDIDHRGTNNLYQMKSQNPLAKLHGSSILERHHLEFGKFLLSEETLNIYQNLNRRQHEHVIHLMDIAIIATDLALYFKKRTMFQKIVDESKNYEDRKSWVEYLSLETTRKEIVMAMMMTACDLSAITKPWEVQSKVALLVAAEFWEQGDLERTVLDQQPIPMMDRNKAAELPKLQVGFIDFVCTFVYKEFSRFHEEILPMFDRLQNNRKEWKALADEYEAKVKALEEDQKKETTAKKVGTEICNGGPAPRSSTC
Experiment: PDE6 enzyme inhibition activity test (scintillation proximity)
Format: biochemical
Conditions: selectivity, ratio of IC50 PDE6/IC50 PDE5
property: PDE6 IC50/PDE5 IC50

                                    molecule             property  result
 0  CCCOc1ccc(S(=O)(=O)N(CCO)CCN2CCOCC2)cc1-c1nc(CC)c(CC)c(=O)[nH]1  PDE6 IC50/PDE5 IC50     9.6
 1  CCCOc1ccc(S(=O)(=O)NCCN2CCOCC2)cc1-c1nc(CC)c(CC)c(=O)[nH]1  PDE6 IC50/PDE5 IC50    38.8
 2  CCCOc1ccc(C(=O)NC(Cc2ccccc2)C(=O)O)cc1-c1nc(CC)c(CC)c(=O)[nH]1 (stereo not shown)  PDE6 IC50/PDE5 IC50    11.4
 3  CCCOc1ccc(NC(C)=O)cc1-c1nc(C(C)C)c(Br)c(=O)[nH]1  PDE6 IC50/PDE5 IC50    36.0
 4  CCCOc1ccc(C(=O)N2CCOCC2)cc1-c1nc(C(C)C)c(Br)c(=O)[nH]1  PDE6 IC50/PDE5 IC50    26.9
 5  CCCOc1ccc(C(=O)NCC(=O)OCC)cc1-c1nc(CC)c(CC)c(=O)[nH]1  PDE6 IC50/PDE5 IC50    5.88
 6  CCCOc1ccc(NC(=O)NCC)cc1-c1nc(CC)c(CC)c(=O)[nH]1  PDE6 IC50/PDE5 IC50    31.0
 7  CCCOc1ccc(NC(=O)N2CCCC2)cc1-c1nc(CC)c(CC)c(=O)[nH]1  PDE6 IC50/PDE5 IC50    10.5
 8  CCCOc1ccc(NC(=O)CC)cc1-c1nc(CC)c(CC)c(=O)[nH]1  PDE6 IC50/PDE5 IC50    10.9
 9  CCCOc1ccc(S(=O)(=O)N2CCCC2C(=O)O)cc1-c1nc(CC)c(CC)c(=O)[nH]1 (stereo not shown)  PDE6 IC50/PDE5 IC50    20.1
10  CCCOc1ccc(S(=O)(=O)N2CCN(CCO)CC2)cc1-c1nc(CC)c(CC)c(=O)[nH]1  PDE6 IC50/PDE5 IC50    15.9
11  CCCOc1ccc(NC(=O)C2CC(O)CN2C(=O)OC(C)(C)C)cc1-c1nc(CC)c(CC)c(=O)[nH]1 (stereo not shown)  PDE6 IC50/PDE5 IC50     6.9
12  CCCOc1ccc(C(=O)N2CCN(C)CC2)cc1-c1nc(CC)c(CC)c(=O)[nH]1  PDE6 IC50/PDE5 IC50     8.9
13  CCCOc1ccc(C(=O)N2CCCC2C(=O)OC)cc1-c1nc(CC)c(CC)c(=O)[nH]1 (stereo not shown)  PDE6 IC50/PDE5 IC50    12.8
14  CCCOc1ccc(N/C(=N/CC)N(CC)CC)cc1-c1nc(CC)c(CC)c(=O)[nH]1  PDE6 IC50/PDE5 IC50   589.0
15  CCCOc1ccc(C(=O)NC(Cc2ccccc2)C(=O)OC)cc1-c1nc(CC)c(CC)c(=O)[nH]1 (stereo not shown)  PDE6 IC50/PDE5 IC50     5.3
